B1: glmS ribozyme (parent)
chain: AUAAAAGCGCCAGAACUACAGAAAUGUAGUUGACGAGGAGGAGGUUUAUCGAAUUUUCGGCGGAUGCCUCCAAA

Variants of: B1
Assay: self-cleavage kobs at 160 uM GlcN6P; higher = faster cleavage; RNA array
Conditions: with glucosamine-6-phosphate
Variants at the floor of the assay were thinned out.
I'd appreciate it if you could supply self-cleavage kobs at 160 uM GlcN6P values for the items below.

Given the variant A39G G60U , what is its reported self-cleavage kobs at 160 uM GlcN6P?
< 1e-05 s⁻¹

Here is the next variant: U55C C58U
< 1e-05 s⁻¹

Request: C8G G38C C50A G66U
< 1e-05 s⁻¹

Also, U31G C34U please.
< 1e-05 s⁻¹

Next record, please: C8G C61G
< 1e-05 s⁻¹

Next: A48G A52C U55C
< 1e-05 s⁻¹

Also G44C A64U ?
< 1e-05 s⁻¹

Another variant to look at: C11G G13U
< 1e-05 s⁻¹

// repeat for G7U G62C and report
< 1e-05 s⁻¹

Now the variant C11U C34U G66C
< 1e-05 s⁻¹

Again, but for A6G A52G
< 1e-05 s⁻¹

Thanks! And U57C G62A ?
< 1e-05 s⁻¹

Another variant to check: G35A G41U A48G
< 1e-05 s⁻¹

Next variant up: G9U G32C
< 1e-05 s⁻¹

Cool, now A33U G35A
< 1e-05 s⁻¹

And then G43A G44A , what is it?
< 1e-05 s⁻¹

Try the variant G7A A39C G51U
< 1e-05 s⁻¹

Same thing, different variant: G32U G63C
< 1e-05 s⁻¹

Follow-up entry: C11G A14C
< 1e-05 s⁻¹

// same read-out, input: C8A A48C
< 1e-05 s⁻¹

And for A33U U49C ?
< 1e-05 s⁻¹

Next variant up: G38U G41C G59C
< 1e-05 s⁻¹

What about C16G G35A ?
< 1e-05 s⁻¹

Entry to check: G35C G63A
< 1e-05 s⁻¹

Now the same for A12G U49A G63U
< 1e-05 s⁻¹
